Quick reference: MIC of the listed items.
- System: Bacteroides fragilis
- measurement_protocol: Antibacterial activity against gut Bacteroides fragilis HM-709 assessed as reduction in bacterial growth measured after 48 hrs by CLSI based broth microdilution method
- Format: organism-based
- test_settings: in vitro

Look over these answered cases.
O=C(Nc1ncco1)c1ccnc(-c2ccc(Cl)c(Cl)c2)c1 = 1 µg/mL
O=C([O-])c1ccc2oc(NC(=O)c3cc(Oc4cccc(OC(F)(F)F)c4)ccn3)nc2c1.[Na+] = 4 µg/mL
O=C(Nc1ncco1)c1cc(Oc2cccc(OC(F)(F)F)c2)ccn1 = 8 µg/mL
CCc1c(Cl)c(O)c(Cl)c(O)c1C(=O)O[C@H]1[C@H](O)[C@H](OC)[C@H](OC/C2=C\C=C\C[C@H](O)/C(C)=C/[C@H](CC)[C@@H](O[C@@H]3OC(C)(C)[C@@H](OC(=O)C(C)C)[C@H](O)[C@@H]3O)/C(C)=C/C(C)=C/C[C@@H]([C@@H](C)O)OC2=O)O[C@@H]1C [FIDAXOMICIN] = > 32 µg/mL
O=C(Nc1ncco1)c1cc(-c2ccc(Cl)c(Cl)c2)ccn1 = 4 µg/mL
CN[C@H](CC(C)C)C(=O)N[C@H]1C(=O)N[C@@H](CC(N)=O)C(=O)N[C@H]2C(=O)N[C@H]3C(=O)N[C@H](C(=O)N[C@H](C(=O)O)c4cc(O)cc(O)c4-c4cc3ccc4O)[C@H](O)c3ccc(c(Cl)c3)Oc3cc2cc(c3O[C@@H]2O[C@H](CO)[C@@H](O)[C@H](O)[C@H]2O[C@H]2C[C@](C)(N)[C@H](O)[C@H](C)O2)Oc2ccc(cc2Cl)[C@H]1O [VANCOMYCIN] = 16 µg/mL

We now examine a further compound.
Notebook: Cc1ncc([N+](=O)[O-])n1CCO [METRONIDAZOLE] , MIC read as 1 µg/mL

###

- measurement_protocol: Drug excretion in CD1 mouse feces at 20 mg/kg, po measured upto 8 hrs by LC-MS/MS analysis
- Format: ADME, organism-based
- test_settings: in vivo
log10 of Drug excretion by entry:
The common logarithm of Drug excretion in µg/g is what is listed.

Recorded log10 of Drug excretion, per entry:
O=C(Nc1ncco1)c1cc(Oc2cccc(OC(F)(F)F)c2)ccn1 = 1.69
O=C([O-])c1ccc2oc(NC(=O)c3cc(Oc4ccc(F)c(F)c4)ccn3)nc2c1.[Na+] = 0.57
O=C(Nc1ncco1)c1cc(Oc2cccc(F)c2)ccn1 = 0.38

The compound identified as O=C([O-])c1ccc2oc(NC(=O)c3cc(Oc4cccc(OC(F)(F)F)c4)ccn3)nc2c1.[Na+] registered its log10 of Drug excretion at 1.11

Reported log10 of Drug excretion ( O=C(Nc1ncco1)c1ccnc(-c2ccc(Cl)c(Cl)c2)c1 ) = 0.45

###

- Tested on: Fusobacterium nucleatum
- measurement_protocol: Antibacterial activity against gut Fusobacterium nucleatum HM-992 assessed as reduction in bacterial growth measured after 48 hrs by CLSI based broth microdilution method
- Format: organism-based
- test_settings: in vitro
Quick reference for MIC among some compounds
Use µg/mL as the unit, but write only the number.

Worked cases, MIC given:
O=C(Nc1ncco1)c1cc(Oc2cccc(OC(F)(F)F)c2)ccn1 = 8
CN[C@H](CC(C)C)C(=O)N[C@H]1C(=O)N[C@@H](CC(N)=O)C(=O)N[C@H]2C(=O)N[C@H]3C(=O)N[C@H](C(=O)N[C@H](C(=O)O)c4cc(O)cc(O)c4-c4cc3ccc4O)[C@H](O)c3ccc(c(Cl)c3)Oc3cc2cc(c3O[C@@H]2O[C@H](CO)[C@@H](O)[C@H](O)[C@H]2O[C@H]2C[C@](C)(N)[C@H](O)[C@H](C)O2)Oc2ccc(cc2Cl)[C@H]1O = 0.25
O=C([O-])c1ccc2oc(NC(=O)c3cc(Oc4cccc(OC(F)(F)F)c4)ccn3)nc2c1.[Na+] = 4
O=C(Nc1ncco1)c1cc(-c2ccc(Cl)c(Cl)c2)ccn1 = 8

The compound O=C(Nc1ncco1)c1ccnc(-c2ccc(Cl)c(Cl)c2)c1 showed MIC equal to 8

Kindly note the recorded MIC for Cc1ncc([N+](=O)[O-])n1CCO , which is 2
